B1: unnamed (parent)
chain 1: ECPDRWRAEIDLGLPPGVQVGDLLRNEQTMGSLRQVYLLAVQANSITDHLKRFDAVRVPESCRGVVEAQVAKLEAVRSVIWNTMISLAVSGIEMDENGLKALLDKQAGDSLALMEMEKVATALKMD
chain 2: MQKVSLRVTPRLVLEVNRHNAICVATNVPEFYNARGDLNIRDLRAHVKARMISSQFCGYVLVSLLDSEDQVDHLNIFPHVFSERMILYKPNNVNLMEMCALLSMIENAKSPSIGLCREVLGRLTLLHSKCNNLDSLFLYNGARTLLSTLVKYHDLEEGAATPGPWNEGLSLFKLHKELKRAPSEARDLMQSLFLTSGKMGCLARSPKDYCADLNKEEDANSGFTFNLFYQDSLLTKHFQCQTVLQTLRRKCLGSDTVSKIIP

Variants of: B1
Test Protocol: BLI
Condition Label: with partner chain of the complex shown; 10 μg ml−1 His-tagged BBRF2Δ(F209K); BSRF1Δ at 500, 250, 125, 62.5, 31.3, 15.6 nM
Reported Property: pKd
Keep in mind that pKd stands for -log10 of concentration in molar terms.

(Q) Entry chain 2 F193K has what pKd?
(A) 7.27

Attribution: paper PMC7588443
